Assay: qHTS Assay for Inhibitors of Hepatitis C Virus (HCV)
Conditions: Huh7.5.1 HCVcc-Cre infection, luciferase reporter, 44 h; series mostly up to 41.8 µM
Out of some 340,000 compounds screened, about 12,000 (3.5%) were called active. About 18% were inconclusive and are not listed. Calls follow the shape of the dose curve; as a rule, active = well fitted inhibition curve with a large enough effect; inconclusive = small, poorly fitted or top-dose-only effect, or another doubt; inactive = no such curve, though single readings can be large or run the other way. The sample holds actives, similar compounds and a random draw of the others, so the mix is not that of the screen.
Classes used: active, inactive

>>> qualitative_label("Cn1c2c(c(=O)n(C)c1=O)CN(Cc1ccco1)CN2")
"inactive"
>>> qualitative_label("O=C(/C=C/c1ccco1)Nc1cccc(-c2nc3ccccc3[nH]2)c1")
"inactive"
>>> qualitative_label("COc1ccc(C)cc1NC(=O)CSc1cccc[n+]1[O-]")
"inactive"
>>> qualitative_label("O=C1c2ccccc2C(=O)C1C(=O)C1CC1")
"inactive"
>>> qualitative_label("CSc1nsc(SCC(=O)Nc2cc(C(=O)O)ccc2C)n1")
"inactive"
>>> qualitative_label("COc1ccc(C)cc1NC(=O)CSc1nc(SC)ns1")
"active"
>>> qualitative_label("CCOC(=O)C1=C(c2ccc(OC)cc2)C(=O)c2ccccc2C1=O")
"active"
>>> qualitative_label("Cc1nnc(NC(=O)/C=C/c2ccco2)s1")
"inactive"
>>> qualitative_label("Cn1c(=O)n(Cc2ccco2)c(=N)c2c3c(sc21)CCCC3")
"active"
>>> qualitative_label("COc1ccc(OCCCON2C(=O)c3ccccc3C2=O)cc1")
"inactive"
>>> qualitative_label("CC(C)(C)OC(=O)C[C@@H]1C/C=C\\C[C@H](CC(=O)N[C@@H](CO)Cc2ccccc2)C(=O)N[C@H](Cc2ccccc2)COC1=O")
"inactive"
